Target: T1, recombinant rhesus GM-CSF protein (rhesus, UniProt Q9GL44 18-144)
T1 construct: Bought recombinant protein (Genscript)
T1 sequence (Q9GL44 entry or part of it limits assumed): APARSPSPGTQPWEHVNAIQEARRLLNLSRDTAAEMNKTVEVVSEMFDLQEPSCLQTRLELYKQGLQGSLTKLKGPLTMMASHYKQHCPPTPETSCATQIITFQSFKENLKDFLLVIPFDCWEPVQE
Assay: ELISA, rhesus GM-CSF coated at 1 ug/ml
readout-kind: EC50 (µg/mL)
// return numeric value only (unit: µg/mL, not printed)

• Hu50C5-17 (antibody, V domains shown, Humanized; also called 35230Hu50C5-17) VH: EVQLVQSGAEVKKPGSSVKVSCKASGYIFSPYSIHWVRQAPGQGLEWIGYINPSTGYIEYNQHFKDRTTLTADKSTSTAYMELRSLRSEDTAVYYCARGGDYEGYFDYWGQGTTVTVSS VL: DIQMTQSPSSLSASVGDRVTITCRLNENIYSFLAWYQQKPGKAPKLLVYNAETLAEGVPSRFSGSGSGTDFTLTISSLQPEDFATYYCQQHYGTPYTFGGGTKVEIK = 0.0189

Let's switch to this binder now.
[Q] Quick check: EC50 of Hu23F4-36 (antibody, V domains shown, Humanized) VH: EVQLVQSGAEVKKPGASVKVSCKASDYTLTSHYLHWVRQAPGQGLEWIGWIFPGDDKTKYNEKFKGRATLTSDTSISTAYMELSRLRSDDTAVYYCARGTKYLNWNFDVWGQGTTVTVSS VL: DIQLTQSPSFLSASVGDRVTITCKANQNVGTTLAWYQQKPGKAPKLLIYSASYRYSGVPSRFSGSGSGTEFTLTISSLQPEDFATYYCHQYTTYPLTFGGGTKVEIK ?
[A] 0.00775

Hey, just so you know, these numbers are from patent US20190002549A1.
